- system.name: beta amyloid (UniProt P05067 672-713, limits assumed)
- measurement.notes: cell-based or functional assay
Measured Δfluorescence (Aβ), Thioflavin T, 72 h at 50° C (no chaperone: 1,324,974,048), listed per entry for reference.
recorded.endpoint: Δfluorescence (Aβ), Thioflavin T, 72 h at 50° C (no chaperone: 1,324,974,048)

INSERT INTO results (binder, reported_measurement) VALUES
  ('ERTIPITRE', '5.77e+08'),
  ('DRFSVNLDVKHFS', '2.64e+08'),
  ('STSLSPFYLRPPSFLRAP', '4.78e+08'),
  ('LTITSSLSSDGV', '3.52e+08'),
  ('HGKHEERQDE', '7.96e+08');
